Biological target: human cardiac ion channel proteins hKir3.1/Kir3.4 (Homo sapiens, UniProt P48544+P48549)
Construct: expressed in transfected cells
Sequence (P48549 whole entry): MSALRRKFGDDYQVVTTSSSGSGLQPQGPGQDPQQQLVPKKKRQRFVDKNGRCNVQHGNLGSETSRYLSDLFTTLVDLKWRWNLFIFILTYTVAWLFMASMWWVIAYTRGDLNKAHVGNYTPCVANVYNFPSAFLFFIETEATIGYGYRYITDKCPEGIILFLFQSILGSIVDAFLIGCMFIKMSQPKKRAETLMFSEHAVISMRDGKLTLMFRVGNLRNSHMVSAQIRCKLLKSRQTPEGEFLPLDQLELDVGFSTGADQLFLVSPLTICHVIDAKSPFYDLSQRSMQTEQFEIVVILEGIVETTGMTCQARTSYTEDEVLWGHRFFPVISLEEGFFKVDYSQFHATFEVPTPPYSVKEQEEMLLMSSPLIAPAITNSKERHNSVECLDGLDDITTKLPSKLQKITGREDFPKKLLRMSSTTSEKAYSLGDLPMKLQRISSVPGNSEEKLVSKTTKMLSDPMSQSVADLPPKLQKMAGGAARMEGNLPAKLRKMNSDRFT
Sequence (P48544 whole entry): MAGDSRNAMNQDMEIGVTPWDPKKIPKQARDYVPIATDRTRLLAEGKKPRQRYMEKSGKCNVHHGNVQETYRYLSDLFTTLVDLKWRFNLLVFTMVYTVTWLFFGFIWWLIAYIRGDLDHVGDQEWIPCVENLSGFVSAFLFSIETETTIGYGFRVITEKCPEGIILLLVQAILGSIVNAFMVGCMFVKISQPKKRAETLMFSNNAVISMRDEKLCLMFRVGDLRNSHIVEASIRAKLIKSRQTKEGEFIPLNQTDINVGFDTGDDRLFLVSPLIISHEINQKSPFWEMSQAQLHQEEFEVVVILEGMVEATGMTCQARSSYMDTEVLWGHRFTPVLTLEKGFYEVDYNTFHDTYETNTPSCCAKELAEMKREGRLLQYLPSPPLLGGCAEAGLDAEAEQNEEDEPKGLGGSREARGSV
Test: Atomic Absorption Screening (AAS) Rb efflux assay of hKir3.1/Kir3.4 block, carbachol/high K+ stimulated, 10-pt or 7-pt CR
Type: cell-based
Conditions: 10-pt CR (0.003 to 67 μmol/L), AAS Rb efflux, CHO-K1 cells expressing hKir3.1/Kir3.4; mean of >4 replicates; read-out: IKACh IC50 10-pt CR, AAS
pIC50: −log10 of the molar value.
MEASUREMENT KIND: pIC50

# compound CCCC[C@@H](CN1CC(O)C1)N(C)C(=O)c1ccc(F)c(F)c1 [Example 33.2] ; its pIC50 = 6.49

# compound COc1ccc(C(=O)N(C)C(CN2CC(O)C2)C2CCCC2)cc1 (single isomer, unassigned) [32.2, isomer 2] ; its pIC50 = 4.82

# compound Cc1cc(C(=O)N(C)[C@H](CN2CC(F)C2)C(C)C)ccc1F [Example 1.5] ; its pIC50 = 4.92

# compound CN(C(=O)c1ccc(F)cc1)[C@H](CN1CC(O)C1)C1CCCCC1 [Example 36.7] ; its pIC50 = 5.85

[I] CN(C(=O)c1ccc(C(C)(C)C#N)cc1)[C@H](CN1CC(O)C1)C1CCCCC1 [Example 36.5]
[II] CCCC[C@@H](CN1CC(O)C1)N(C)C(=O)c1cccc(C(F)F)c1 [Example 33.10]
Q: Between I and II , which one shows the larger pIC50 value? Select an item and report its label.
Ans: II
(II: 5.96, I: 5.72)

---

Biological target: human cardiac ion channel proteins hKir3.1/Kir3.4 (Homo sapiens, UniProt P48544+P48549)
Construct: expressed in transfected cells
Assay: Atomic Absorption Screening (AAS) Rb efflux assay of hKir3.1/Kir3.4 block, carbachol/high K+ stimulated, 10-pt or 7-pt CR
Format: cell-based
Conditions: 10-pt CR (0.003 to 67 μmol/L), AAS Rb efflux, CHO-K1 cells expressing hKir3.1/Kir3.4; mean of >4 replicates; read-out: IKACh IC50 10-pt CR, AAS
pIC50: −log10 of the molar value.
MEASUREMENT KIND: pIC50

Use these answered entries as a reference point.
# compound Cc1cc(C(=O)N(C)[C@H](CCN2CCCC2)C(C)C)ccc1F [Example 13.4] ; its pIC50 = 4.72

# compound CC(C)C[C@@H](CN1CC(O)C1)N(C)C(=O)c1ccc(C#N)cc1F [Example 38.6] ; its pIC50 = 5.47

# compound Cc1cccc(C(=O)N(C)[C@H](CN2CCCC2)C(C)C)c1 [Example 12.2] ; its pIC50 = 4.80

# compound CN(C(=O)c1ccc(C#N)cc1)C(CN1CC(O)C1)C1CCCC1 (single isomer, unassigned) [32.5, isomer 1] ; its pIC50 = 6.47

# compound CCCC[C@@H](CN1CC(O)C1)N(C)C(=O)c1ccc(F)c(Cl)c1 [Example 33.8] ; its pIC50 = 6.80

[a] CCC[C@@H](CN1CCC1)N(C)C(=O)c1ccc(F)c(C)c1 [Example 1.4]
[b] CC(C)C[C@@H](CN1CC(O)C1)N(C)C(=O)c1ccc(F)c(F)c1 [Example 38.1]
[c] CC[C@H](C)C(CN1CC(O)C1)N(C)C(=O)c1ccc(F)c(F)c1 (stereo in doubt) [Example 29.1]
[d] Cc1cccc(C(=O)N(C)[C@H](CN2CCC2)C(C)C)c1 [Example 1.16]
Q: Write the entries in order, lowest recorded pIC50 first. Please reply with the labels ordered as requested. Many thanks.
Ans: d, c, a, b

[P] CC(C)[C@@H](CN1CCCC1)N(C)C(=O)c1cc(F)cc(F)c1F [Example 16.9]
[Q] Cc1cc(C(=O)N(C)[C@H](CN2C[C@H](O)[C@@H](O)C2)C(C)C)ccc1Cl [Example 8.13]
Q: Quick one: lower pIC50, P or Q ? Select an item and report its label.
Ans: P
(P: 4.85, Q: 5.72)

[A] Cc1cc(C(=O)N(C)[C@H](CN2CC[C@@H](O)C2)C(C)C)ccc1F [Example 17.3]
[B] CC[C@@H](CN1CC(O)C1)N(C)C(=O)c1ccc(Br)cc1 [Example 42]
Q: Quick one: lower pIC50, A or B ? Select an item and report its label.
Ans: A
(A: 4.96, B: 5.40)

[1] CC(C)[C@@H](CN1CCCC(F)(F)C1)N(C)C(=O)c1ccc(F)c(Cl)c1 [Example 16.1]
[2] CCC[C@@H](CN1C[C@H](O)[C@H]1C)N(C)C(=O)c1ccc(F)c(F)c1 (relative stereo) [Example 43.3]
[3] Cc1cc(C(=O)N(C)[C@@H](CN2CC(O)C2)C2CCC2)ccc1F [Example 35.4]
[4] CN(C(=O)c1ccc(F)c(Cl)c1)[C@H](CN1CC(O)(C2CC2)C1)C1CC1 [Example 9.2]
Q: Hey, quick one: sort these by pIC50, largest value first please. Please reply with the labels ordered as requested. Many thanks.
Ans: 3, 4, 2, 1

[I] CC(C)[C@@H](CCN1CCCC1)N(C)C(=O)c1cccc(Cl)c1 [Example 13.3]
[II] CCC[C@@H](CN1CC(O)C1)N(C(=O)c1ccc(F)c(F)c1)C(C)C [Example 34.2]
[III] CC[C@H](C)[C@@H](CN1CC(O)C1)N(C)C(=O)c1ccc(C#N)cc1F [Example 29.7]
[IV] CCC[C@@H](CN1CCC(O)CC1)N(C)C(=O)c1ccc(Cl)cc1 [Example 44]
[V] CN(C(=O)c1ccc(Cl)cc1)[C@H](CN1CC(O)C1)C1CCC1 [Example 39.14]
Q: Hey, quick one: sort these by pIC50, largest value first please. Please reply with the labels ordered as requested. Many thanks.
Ans: V, IV, III, II, I
(V: 7.14, IV: 6.09, III: 5.46, II: 4.96, I: 4.72)

[a] CO[C@H](C)[C@@H](CN1CCCC1)N(C)C(=O)c1cccc(C)c1 [Example 3.2]
[b] COC1CCN(C[C@H](C(C)C)N(C)C(=O)c2ccc(F)c(C)c2)CC1 [Example 3.8]
Q: Between a and b , which one shows the larger pIC50 value? Select an item and report its label.
Ans: b
(b: 5.32, a: 4.70)

[I] CN(C(=O)c1ccc(F)cc1)[C@H](CN1CC(O)C1)C1CC1 [Example 7.4]
[II] CC(C)[C@@H](CN1CC(F)C1)N(C)C(=O)c1ccc(Br)cc1 [Example 1.7]
Q: Quick one: lower pIC50, I or II ? Select an item and report its label.
Ans: I
(I: 5.01, II: 5.30)

[a] COc1ccc(C(=O)N(C)[C@@H](CN2CC(O)C2)C2CCC2)cc1F [Example 35.13]
[b] CN(C(=O)c1ccc(Cl)cc1)[C@H](CN1CC(O)C1)C1CC1 [Example 7.2]
[c] COC[C@@H]1CCCN1C[C@H](C(C)C)N(C)C(=O)c1ccc(Cl)cc1 [Example 3.19]
[d] CC[C@H](C)[C@@H](CN1CC(O)C1)N(C)C(=O)c1ccc(Cl)cc1 [Example 29.2]
Q: Hey, quick one: sort these by pIC50, largest value first please. Please reply with the labels ordered as requested. Many thanks.
Ans: d, b, c, a
